tested_target: HIV-1 Env of pseudovirus Du172.17 (HIV-1)
assay_name: cell-based or functional assay
Measured neutralization IC50, listed per entry.
# unit: µg/mL | format: bare number

MS-92 (antibody, V domains shown) VH: QVQLVQSGPEVRKPGTSVKVSCKAPGNTLKTYDLHWVRSVPGQGLEWMGWISHEGDKKVIVERFKAKVTIDRDRSTNTAYLQLSGLRSGDTAVYYCAKGSKHRLRDYALYDDDGALNWAVDVDYLSNLEFWGQGTAVTVSS VL: DIVLTQSPHSLSVTPGESASISCKSSHSLIHGDRNNYLAWYVQKPGRSPQLLIYLASSRASGVPDRFSGSGSDKDFTLKISRVETEDVGTYYCMQGRESPWTFGQGTKVDIKR | 6.85
MS-89 (antibody, V domains shown) VH: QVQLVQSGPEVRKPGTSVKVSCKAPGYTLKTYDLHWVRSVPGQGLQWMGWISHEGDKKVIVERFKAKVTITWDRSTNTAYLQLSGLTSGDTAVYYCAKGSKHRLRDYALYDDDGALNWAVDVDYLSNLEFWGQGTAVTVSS VL: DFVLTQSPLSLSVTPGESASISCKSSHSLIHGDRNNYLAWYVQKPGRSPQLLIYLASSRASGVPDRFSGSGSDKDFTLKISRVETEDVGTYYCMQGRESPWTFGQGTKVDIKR | 11.9
MS-84 (antibody, V domains shown) VH: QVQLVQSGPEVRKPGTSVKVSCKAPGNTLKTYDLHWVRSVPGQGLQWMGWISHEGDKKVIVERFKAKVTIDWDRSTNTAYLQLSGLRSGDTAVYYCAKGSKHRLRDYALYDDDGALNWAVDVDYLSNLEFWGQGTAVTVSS VL: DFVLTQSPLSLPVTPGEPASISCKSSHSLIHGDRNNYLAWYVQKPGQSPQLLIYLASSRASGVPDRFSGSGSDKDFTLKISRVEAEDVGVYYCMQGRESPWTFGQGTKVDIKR | 1.64

Now for another entry.
IN: Find the measured neutralization IC50 of MS-81 (antibody, V domains shown) VH: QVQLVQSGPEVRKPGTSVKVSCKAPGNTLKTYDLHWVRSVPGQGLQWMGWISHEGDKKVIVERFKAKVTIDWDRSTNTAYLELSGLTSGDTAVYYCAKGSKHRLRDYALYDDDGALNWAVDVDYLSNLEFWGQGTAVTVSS VL: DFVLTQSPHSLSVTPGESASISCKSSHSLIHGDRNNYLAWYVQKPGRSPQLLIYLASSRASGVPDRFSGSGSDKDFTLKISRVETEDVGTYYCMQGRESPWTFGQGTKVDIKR and report it.
OUT: 1.65

Source of measurements: patent US20220025021A1
